Cited source for all entries: paper PMC2584942

# assay.method.text: Plasma pharmacokinetics of telatinib and metabolite BAY 60-8246 (LC-MS-MS, non-compartmental)
# Assay type: in vivo, human
# study.conditions: human; telatinib in plasma, day 14 cycle 1, 1500 mg BID oral, 150 mg mesylate tablet, n=12, geometric mean (%CV)
endpoint.name: Cmax (ng/mL)
State the answer as a number, implicitly in ng/mL.

In: Which Cmax is listed for CNC(=O)c1cc(COc2nnc(Nc3ccc(Cl)cc3)c3ccoc23)ccn1 [telatinib] ?
Out: 964

---

# assay.method.text: Plasma pharmacokinetics of telatinib and metabolite BAY 60-8246 (LC-MS-MS, non-compartmental)
# Assay type: in vivo, human
# study.conditions: human; telatinib in plasma, day 14 cycle 1, 150 mg BID oral, 25 mg mesylate tablet, n=6, geometric mean (%CV); read-out: AUC0–12
# Description: Patients with at least one valid pharmacokinetic profile were valid for the pharmacokinetic analysis. Plasma samples were collected at predose and 0.5, 1, 2, 3, 4, 6, 8, and 12 h postdose on day 1 and day 14 of cycle 1 and were analysed for BAY 57-9352 and its demethylated metabolite M-2, BAY 60-8246, using a validated LC-MS-MS analytical method. […]
endpoint.name: AUC(0-t) (ng·h/mL)
State the answer as a number, implicitly in ng·h/mL.

In: Which AUC(0-t) is listed for `CNC(=O)c1cc(COc2nnc(Nc3ccc(Cl)cc3)c3ccoc23)ccn1` ?
Out: 1730

---

# assay.method.text: Plasma pharmacokinetics of telatinib and metabolite BAY 60-8246 (LC-MS-MS, non-compartmental)
# Assay type: in vivo, human
# study.conditions: human; telatinib in plasma, day 14 cycle 1, 75 mg BID oral, 25 mg mesylate tablet, n=4, geometric mean (%CV)
endpoint.name: Cmax (ng/mL)
State the answer as a number, implicitly in ng/mL.

In: Which Cmax is listed for CNC(=O)c1cc(COc2nnc(Nc3ccc(Cl)cc3)c3ccoc23)ccn1 [telatinib] ?
Out: 212

---

# assay.method.text: Plasma pharmacokinetics of telatinib and metabolite BAY 60-8246 (LC-MS-MS, non-compartmental)
# Type: in vivo, human
# study.conditions: human; telatinib in plasma, day 14 cycle 1, 300 mg BID oral, 25 mg mesylate tablet, n=6, median (range); read-out: tmax
endpoint.name: Tmax (h)
State the answer as a number, implicitly in h.

In: Which Tmax is listed for `CNC(=O)c1cc(COc2nnc(Nc3ccc(Cl)cc3)c3ccoc23)ccn1` ?
Out: 1.5

---

# assay.method.text: Plasma pharmacokinetics of telatinib and metabolite BAY 60-8246 (LC-MS-MS, non-compartmental)
# Format: in vivo, human
# study.conditions: human; telatinib in plasma, day 14 cycle 1, 1500 mg BID oral, 150 mg mesylate tablet, n=12, geometric mean (%CV); read-out: AUC0–tn
endpoint.name: AUC (ng·h/mL)
State the answer as a number, implicitly in ng·h/mL.

In: Which AUC is listed for `CNC(=O)c1cc(COc2nnc(Nc3ccc(Cl)cc3)c3ccoc23)ccn1` ?
Out: 6170

---

# assay.method.text: Plasma pharmacokinetics of telatinib and metabolite BAY 60-8246 (LC-MS-MS, non-compartmental)
# Format: in vivo, human
# study.conditions: human; telatinib in plasma, day 14 cycle 1, 1200 mg BID oral, 150 mg mesylate tablet, n=6, geometric mean (%CV); read-out: AUC0–tn
endpoint.name: AUC (ng·h/mL)
State the answer as a number, implicitly in ng·h/mL.

In: Which AUC is listed for CNC(=O)c1cc(COc2nnc(Nc3ccc(Cl)cc3)c3ccoc23)ccn1 [telatinib] ?
Out: 7100

---

# assay.method.text: Plasma pharmacokinetics of telatinib and metabolite BAY 60-8246 (LC-MS-MS, non-compartmental)
# Type: in vivo, human
# study.conditions: human; telatinib in plasma, day 14 cycle 1, 600 mg BID oral, 150 mg mesylate tablet, n=11, geometric mean (%CV); read-out: t1/2 (converted)
endpoint.name: half-life (h)
State the answer as a number, implicitly in h.

In: Which half-life is listed for CNC(=O)c1cc(COc2nnc(Nc3ccc(Cl)cc3)c3ccoc23)ccn1 [telatinib] ?
Out: 8.7

---

# assay.method.text: Plasma pharmacokinetics of telatinib and metabolite BAY 60-8246 (LC-MS-MS, non-compartmental)
# Format: in vivo, human
# study.conditions: human; telatinib in plasma, day 14 cycle 1, 600 mg BID oral, 150 mg mesylate tablet, n=11, geometric mean (%CV); read-out: AUC0–12
endpoint.name: AUC(0-t)
Your answer should be a number followed by the unit of measure.

In: Which AUC(0-t) is listed for CNC(=O)c1cc(COc2nnc(Nc3ccc(Cl)cc3)c3ccoc23)ccn1 [telatinib] ?
Out: 5430 ng·h/mL

---

# assay.method.text: Plasma pharmacokinetics of telatinib and metabolite BAY 60-8246 (LC-MS-MS, non-compartmental)
# Format: in vivo, human
# study.conditions: human; telatinib in plasma, day 14 cycle 1, 1200 mg BID oral, 150 mg mesylate tablet, n=6, geometric mean (%CV)
endpoint.name: Cmax (ng/mL)
State the answer as a number, implicitly in ng/mL.

In: Which Cmax is listed for `CNC(=O)c1cc(COc2nnc(Nc3ccc(Cl)cc3)c3ccoc23)ccn1` ?
Out: 1140

---

# assay.method.text: Plasma pharmacokinetics of telatinib and metabolite BAY 60-8246 (LC-MS-MS, non-compartmental)
# Format: in vivo, human
# study.conditions: human; telatinib in plasma, day 14 cycle 1, 900 mg BID oral, 150 mg mesylate tablet, n=12, geometric mean (%CV); read-out: AUC0–tn
endpoint.name: AUC

In: Which AUC is listed for CNC(=O)c1cc(COc2nnc(Nc3ccc(Cl)cc3)c3ccoc23)ccn1 [telatinib] ?
Out: 7410 ng·h/mL

---

# assay.method.text: Plasma pharmacokinetics of telatinib and metabolite BAY 60-8246 (LC-MS-MS, non-compartmental)
# Type: in vivo, human
# study.conditions: human; telatinib in plasma, day 14 cycle 1, 1500 mg BID oral, 150 mg mesylate tablet, n=12, geometric mean (%CV); read-out: AUC0–12
endpoint.name: AUC(0-t) (ng·h/mL)
State the answer as a number, implicitly in ng·h/mL.

In: Which AUC(0-t) is listed for CNC(=O)c1cc(COc2nnc(Nc3ccc(Cl)cc3)c3ccoc23)ccn1 [telatinib] ?
Out: 6290
